This collection of values is drawn from patent US20090053192A1.

biological target: TNAP (Homo sapiens); experiment: luminescent CDP-star-based TNAP assay, MLSMR screen (PubChem AID 518); details: calculated as (100-X)/100, where X is % inhibition; luminescence
Sequence (P05186 18-502 limits assumed): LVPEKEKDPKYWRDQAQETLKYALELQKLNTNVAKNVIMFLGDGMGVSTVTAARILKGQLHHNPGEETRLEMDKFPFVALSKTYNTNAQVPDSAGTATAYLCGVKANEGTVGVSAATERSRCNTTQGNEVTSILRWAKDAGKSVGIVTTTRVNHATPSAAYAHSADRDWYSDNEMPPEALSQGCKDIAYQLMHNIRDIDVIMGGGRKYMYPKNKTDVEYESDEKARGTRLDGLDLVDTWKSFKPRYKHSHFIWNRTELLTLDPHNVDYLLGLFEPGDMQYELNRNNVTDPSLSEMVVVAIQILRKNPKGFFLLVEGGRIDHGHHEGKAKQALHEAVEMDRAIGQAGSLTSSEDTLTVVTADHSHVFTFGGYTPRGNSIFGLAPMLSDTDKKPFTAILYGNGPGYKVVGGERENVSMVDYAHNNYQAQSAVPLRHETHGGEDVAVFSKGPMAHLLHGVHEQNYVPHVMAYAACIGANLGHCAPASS
READOUT KIND: TNAP Activation Factor

>>> experimental_result("CCc1ccc(-c2nc(CN3CCC(C(=O)NCCN(CC)c4ccccc4)CC3)c(C)o2)cc1")
1.6
>>> experimental_result("NC1=NC2(CCC(c3ccccc3)CC2)n2c(nc3ccccc32)N1 (centres unmarked)")
1.6
>>> experimental_result("O=C(CN1C(=O)CCC1=O)Nc1nc(-c2ccccn2)cs1")
2.0
>>> experimental_result("Cc1nn2c(O)cc(C(C)(C)C)nc2c1-c1ccccc1")
1.8
>>> experimental_result("O=C(Nc1cccc(OC(F)(F)F)c1)c1ccc(Br)o1")
1.6
